This section presents molecules with their documented pIC50 values.
- target: BACE1 enzyme (Homo sapiens, UniProt P56817)
- Construct: The HEK293-9B.A1 cell line, which overexpresses the BACE1 enzyme, was derived from HEK293 cells; endogenous in cells; washed 48,000 x g pellet of the cell homogenate
- Sequence (P56817 46-501): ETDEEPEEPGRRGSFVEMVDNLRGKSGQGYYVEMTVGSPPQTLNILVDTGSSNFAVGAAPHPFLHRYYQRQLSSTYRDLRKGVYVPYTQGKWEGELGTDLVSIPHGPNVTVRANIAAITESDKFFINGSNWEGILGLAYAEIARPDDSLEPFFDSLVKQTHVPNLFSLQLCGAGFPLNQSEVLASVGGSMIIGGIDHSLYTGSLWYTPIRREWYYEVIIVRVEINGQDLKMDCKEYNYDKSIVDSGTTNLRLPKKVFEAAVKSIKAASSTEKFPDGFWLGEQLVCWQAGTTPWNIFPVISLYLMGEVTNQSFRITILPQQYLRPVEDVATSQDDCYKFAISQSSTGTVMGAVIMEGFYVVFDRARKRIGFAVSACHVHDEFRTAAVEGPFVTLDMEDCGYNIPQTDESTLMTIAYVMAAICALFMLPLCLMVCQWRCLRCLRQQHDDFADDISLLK
- assayText: Radioligand displacement assay with a radiolabeled BACE inhibitor on HEK293-9B.A1 cell homogenate
- Type: binding
- conditions: displacement of 1 nM tritiated radioligand, HEK293-9B.A1 homogenate, pH 5.0, 1.5 hr at 25° C.; read-out: Activity Rating (activity based on IC50 values)
pIC50: −log10 of the molar value. Where a name gives a salt, the structure may show the parent alone.

molecule	pIC50
COc1cccc(CNC[C@@H](O)[C@H](Cc2cc(F)cc(F)c2)NC(=O)c2cc(C(C)=O)cc(N(C)S(C)(=O)=O)c2)c1 [Example 29, TFA salt]	6.00 to 7.00

Q) # return recorded pIC50 for input CCCN(C)C(=O)c1cc(C(=O)N[C@@H](Cc2cc(F)cc(F)c2)[C@H](O)CNCc2cccc(OC)c2)cc(/C(C)=N/OC)c1 [Example 10, hydrochloride]
A) > 7.00

Q) # return recorded pIC50 for input CCCN(C)C(=O)c1cc(C(=O)N[C@@H](Cc2cc(F)cc(F)c2)[C@H](O)CNCc2cccc(OC)c2)cc(C(C)O)c1 (stereo partly shown) [Example 15, hydrochloride]
A) > 7.00

Q) # return recorded pIC50 for input "C=CCO/N=C(\C)c1cc(C(=O)N[C@@H](Cc2cc(F)cc(F)c2)[C@H](O)CNCc2cccc(OC)c2)cc(N(c2ccccc2)S(C)(=O)=O)c1"
A) > 7.00

Q) # return recorded pIC50 for input COc1cccc(CNC[C@@H](O)[C@H](Cc2cc(F)cc(F)c2)NC(=O)c2cc(/C(C)=N/OCc3ccccc3)cc(S(C)(=O)=O)c2)c1 [Example 18, TFA salt]
A) 6.00 to 7.00

Q) # return recorded pIC50 for input COc1cccc(CNC[C@@H](O)[C@H](Cc2cc(F)cc(F)c2)NC(=O)c2cc(C(C)O)cc(N(C)S(C)(=O)=O)c2)c1 (stereo partly shown) [Example 35, TFA salt]
A) > 7.00

Q) # return recorded pIC50 for input CCCN(C)C(=O)c1cc(C(C)=O)cc(C(=O)N[C@@H](Cc2cc(F)cc(F)c2)[C@H](O)CNCc2cccc(OC)c2)c1 [Example 8, TFA salt]
A) > 7.00

Q) # return recorded pIC50 for input C=CCO/N=C(/C)c1cc(C(=O)NC(C)c2ccc(F)cc2)cc(C(=O)N[C@@H](Cc2cc(F)cc(F)c2)[C@H](O)CNCc2cccc(OC)c2)c1 (stereo partly shown) [Example 49, TFA salt]
A) 6.00 to 7.00
